- Assay Text: chemical genetic growth profiling, strain panel (AID 1159580);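 also: tested at 20 µM; growth read once vehicle control cultures reached saturation at 30 °C; 1 = growth at the plate median or of vehicle wells; lower values mean less growth of the strain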
- Condition Description: S. cerevisiae deletion strains, growth OD, strain wtn01, stronger effect = lower value
Out of some 5,500 compounds screened, about 2,000 (36%) were called active. Not shown: some 18% with an inconclusive outcome. Some of the results follow.
The entries below are paired with their reported normalized growth.
Number, no unit, nothing else.

>>> df
                                   molecule  reading
0  O=C1CC2OCC=C3CN4CC[C@]56c7ccccc7N1C5[C@H]2[C@H]3CC46 (some centres not stated)    0.993
1                 Nc1ccc(N=Nc2ccccc2)c(N)n1    0.964
2  CC(C(=O)O)c1ccc(C(=O)c2cccs2)cc1 (configuration not stated)     1.01
3  O=C(O)CN(CC(=O)O)Cc1cc2c(-c3ccccc3C(=O)O)c3cc(CN(CC(=O)O)CC(=O)O)c(=O)cc-3oc2cc1O     1.01
4  CC1OC1P(=O)(O)O (configuration not stated)    0.967
5  COC(=O)C(O)c1ccccc1 (configuration not stated)     1.01

Turning to the following molecule.
Inquiry: What normalized growth value was documented for this molecule, Cc1cccc(C)c1NC1=NCCCS1 ?
Reply text: 0.973
